assay-summary: inhibition of 3D7 malaria parasite growth – strain 3D7 (AID 2306);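 note: 0% = DMSO wells and 100% = chloroquine plus artemisinin control wells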
reported-conditions: P. falciparum 3D7 erythrocytic growth, LDH absorbance, 72 h; at 2 µM; hits give high values
# Lookup of reported growth inhibition keyed by entry
Write down the numeric answer in % and omit the unit.

{"compound": "Cc1cccc2[nH]c(C3CCN(CC4CCN(C(=O)/C=C/c5ccc(Cl)c(Cl)c5)CC4)CC3)nc12", "observed-property": "growth inhibition", "recorded-result": 100}
{"compound": "OCCN1CCN(Cc2ccc(-c3ccc(-c4nc5ccc(F)cc5[nH]4)cc3)cc2)CC1", "observed-property": "growth inhibition", "recorded-result": 101}
{"compound": "O=C(NCCCc1ccccc1)c1csc(C2CCCN(C(=O)c3ccc(O)c(-c4cccc5ccccc45)c3)C2)n1 (stereo unspecified)", "observed-property": "growth inhibition", "recorded-result": 97}
{"compound": "Cc1[nH]c(C)c(-c2ccc(-c3ccc(C(F)(F)F)cc3C(F)(F)F)nc2)c(=O)c1Br", "observed-property": "growth inhibition", "recorded-result": 97}
{"compound": "CCN(CC)CCCC(C)N=C(Nc1ccc(C#N)cc1O)Nc1ccccc1Br (stereo unspecified)", "observed-property": "growth inhibition", "recorded-result": 89}

Proceed to the following item.
Req: Give reported growth inhibition value for CCn1cc(CN2CCCC(C(=O)Nc3ccc(-c4nc5ccccc5[nH]4)cc3)C2)cn1 (stereo unspecified)
Resp: 100

----------
assay-summary: inhibition of 3D7 malaria parasite growth – strain 3D7 (AID 2306);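 note: 0% = DMSO wells and 100% = chloroquine plus artemisinin control wells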
reported-conditions: P. falciparum 3D7 erythrocytic growth, LDH absorbance, 72 h; at 2 µM; hits give high values
observed-property: growth inhibition (%)
Express it in %; write the number only.

Solved entries (count: 6):
{"compound": "CN(C)CCC(O)C=C(c1ccc(Cl)cc1)c1ccc(Cl)cc1 (stereo unspecified)", "growth inhibition [%]": 93}
{"compound": "N=c1n(Cc2ccccc2)c2ccccc2n1CC(O)c1ccc(Cl)cc1 (stereo unspecified)", "growth inhibition [%]": 96}
{"compound": "O=C(Nc1cccc(CN2CCCN(Cc3ccc4c(c3)OCO4)CC2)c1)c1ccc(Cl)c(Cl)c1", "growth inhibition [%]": 92}
{"compound": "C/C=C/COc1ccc(-c2c(C)[nH]c(C)c(Cl)c2=O)cc1", "growth inhibition [%]": 97}
{"compound": "CC1(C)CCCN(C(=O)c2cccc(-n3nc(-c4ccc(Cl)cc4)cc3N)c2)C1", "growth inhibition [%]": 101}
{"compound": "O=C(N[C@@H](Cc1ccccc1)C(=O)NC1CCCc2ccccc21)c1ccc(O)c(-c2cccc(C(F)(F)F)c2)c1 (stereo partly specified)", "growth inhibition [%]": 91}

Req: Note growth inhibition for the compound shown: CCCCCN1CCCC(NS(=O)(=O)c2ccc(C(=O)Nc3ccc(C(F)(F)F)cc3)cc2)C1 (stereo unspecified)
Resp: 98

Req: Give the reported growth inhibition for this compound. Fc1cccc(COc2ccc(Nc3ncnc4sc(C#CCNC5CCC5)cc34)cc2Cl)c1
Resp: 100

Req: Look up growth inhibition of Fc1ccc2nc(-c3cccc(-c4cccc(CNCc5ccccc5)c4)c3)[nH]c2c1 and report it.
Resp: 102

Req: Please look at this compound and report its growth inhibition: COc1ccc(CN2C(=S)N(Cc3ccccc3)C(=O)C2CC(=O)Nc2ccccc2)cc1OC (stereo unspecified)
Resp: 96
